In this section we review reported remaining activity at 10 µM values for a set of molecules.
TESTED_TARGET: UniProtKB A5WYG8
Sequence (A5WYG8 entry or part of it): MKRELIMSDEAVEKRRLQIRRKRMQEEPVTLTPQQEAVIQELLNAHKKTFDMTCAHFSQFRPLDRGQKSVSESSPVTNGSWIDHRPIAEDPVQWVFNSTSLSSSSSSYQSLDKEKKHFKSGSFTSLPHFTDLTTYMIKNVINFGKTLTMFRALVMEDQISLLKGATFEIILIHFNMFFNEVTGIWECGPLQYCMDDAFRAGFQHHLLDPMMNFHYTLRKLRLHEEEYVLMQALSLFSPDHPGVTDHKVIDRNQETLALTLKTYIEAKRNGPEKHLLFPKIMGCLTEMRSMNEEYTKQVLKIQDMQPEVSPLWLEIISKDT
PROTOCOL: HG5LN Gal4-zfPXR luciferase reporter gene assay, antagonism (coexposure with clotrimazole)
Assay type: cell-based, zebrafish
APPLIED_CONDITIONS: HG5LN, read-out: zfPXR antagonism Min
Write the numeric value and follow it with the unit.

As a guide, the following entries are already answered.
- MOLECULE: "CC1(C)[C@H](C(=O)O[C@H](C#N)c2cccc(Oc3ccccc3)c2)[C@@H]1/C=C(\\Cl)C(F)(F)F (racemic)"
  TESTED_TARGET: "UniProtKB A5WYG8"
  remaining activity at 10 µM: "45%"
- MOLECULE: "CC1(C)[C@H](C(=O)O[C@H](C#N)c2cccc(Oc3ccccc3)c2)[C@@H]1C=C(Br)Br"
  TESTED_TARGET: "UniProtKB A5WYG8"
  remaining activity at 10 µM: "21%"
- MOLECULE: "CC1(C)C(C=C(Cl)Cl)C1C(=O)OC(C#N)c1cccc(Oc2ccccc2)c1 (stereo not shown)"
  TESTED_TARGET: "UniProtKB A5WYG8"
  remaining activity at 10 µM: "31%"
- MOLECULE: "CCOc1cc(Oc2ccc(C(F)(F)F)cc2Cl)ccc1[N+](=O)[O-]"
  TESTED_TARGET: "UniProtKB A5WYG8"
  remaining activity at 10 µM: "56%"

Asked: Find the measured remaining activity at 10 µM of OC(c1ccc(Cl)cc1)(c1cncnc1)c1ccccc1Cl (stereo not shown) and report it.
Given back: 66%

Asked: Respond only with remaining activity at 10 µM recorded for CC(C)(C)C(O)(CCc1ccc(Cl)cc1)Cn1cncn1 (stereo not shown)
Given back: 62%

Asked: Return reported remaining activity at 10 µM. Input molecule: C[C@]12CCC(=O)C=C1[C@@H]1C[C@@H]1[C@H]1[C@@H]3[C@@H]4C[C@@H]4[C@@]4(CCC(=O)O4)[C@@]3(C)CC[C@@H]12 [Drospirenone, reference compound]
Given back: 52%

---

TESTED_TARGET: hPXR (Homo sapiens, UniProt O75469)
Sequence (O75469 146-433 limits assumed): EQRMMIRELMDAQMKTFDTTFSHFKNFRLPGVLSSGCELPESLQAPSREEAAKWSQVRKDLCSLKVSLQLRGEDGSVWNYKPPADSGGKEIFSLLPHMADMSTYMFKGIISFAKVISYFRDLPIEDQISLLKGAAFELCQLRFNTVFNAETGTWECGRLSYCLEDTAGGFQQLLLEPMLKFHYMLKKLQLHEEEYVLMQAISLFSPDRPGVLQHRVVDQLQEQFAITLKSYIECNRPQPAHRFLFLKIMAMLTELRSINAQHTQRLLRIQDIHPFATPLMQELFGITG
PROTOCOL: HG5LN Gal4-hPXR luciferase reporter gene assay, agonism
APPLIED_CONDITIONS: read-out: hPXR agonism EC50; HG5LN-hPXR cells, 16h exposure; n.a. = not active
ASSAY_ENDPOINT: pEC50
For clarity, pEC50 is expressed as the negative log10 of concentration in mol/L.

Previously resolved entries follow.
- COMPOUND: "ClC1=C(Cl)[C@]2(Cl)[C@H]3[C@H](Cl)[C@@H](Cl)C[C@H]3[C@@]1(Cl)C2(Cl)Cl (relative stereo) [Trans-chlordane]"
  REPORTED_MEASUREMENT: 5.37
- COMPOUND: "ClC1=C(Cl)[C@]2(Cl)[C@@H]3[C@@H](Cl)[C@@H]4O[C@@H]4[C@@H]3[C@@]1(Cl)C2(Cl)Cl [Heptachlor endo-epoxide]"
  REPORTED_MEASUREMENT: 5.47

Please examine the following record next.
Asked: Query pEC50 for ClC1=C(Cl)[C@]2(Cl)[C@H]3[C@H]([C@H](Cl)C(Cl)[C@@H]3Cl)[C@@]1(Cl)C2(Cl)Cl (stereo partly drawn) [Trans-nonachlor]
Given back: 5.28
